Documented koff (dissociation rate constant) across a set of compounds
Target: natural TetR (Escherichia coli)
Construct: made in house
Sequence (P04483 whole entry): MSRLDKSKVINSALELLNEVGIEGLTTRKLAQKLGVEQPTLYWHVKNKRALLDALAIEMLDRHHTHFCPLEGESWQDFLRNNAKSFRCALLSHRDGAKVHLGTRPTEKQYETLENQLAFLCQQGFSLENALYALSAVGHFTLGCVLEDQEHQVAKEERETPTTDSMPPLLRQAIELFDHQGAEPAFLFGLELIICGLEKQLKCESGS
Assay: Surface plasmon resonance affinity, natural TetR
Type: binding
Settings: TetR+Mg2+, SPR

Note to self: koff (dissociation rate constant) recorded for `CN(C)[C@@H]1C(O)=C(C(N)=O)C(=O)[C@@]2(O)C(O)=C3C(=O)c4c(O)cccc4[C@@](C)(O)[C@H]3C[C@@H]12` was 0.00133 s⁻¹

Note to self: koff (dissociation rate constant) recorded for `CN(C)[C@@H]1C(O)=C(C(N)=O)C(=O)[C@@]2(O)C(O)=C3C(=O)c4c(O)ccc(Cl)c4[C@@H](O)[C@H]3C[C@@H]12` was 0.000127 s⁻¹

Note to self: koff (dissociation rate constant) recorded for `CN(C)c1ccc(O)c2c1C[C@H]1C[C@H]3[C@H](N(C)C)C(O)=C(C(N)=O)C(=O)[C@@]3(O)C(O)=C1C2=O` was 0.000511 s⁻¹

The origin of these recorded values is paper PMC9735679.
